Reference source for all entries: ChEMBL document CHEMBL1201862

Provide the reported GI50 of each item.
# Test system: OVCAR-5
# procedure_summary: NCI tumour cell line growth inhibition, 48 h
The source made the active and inactive calls. Rule as the data show it: active = GI50 up to about 1.1 µM and inactive = higher.

[
  {
    "compound": "O=C(O)CN1CCNCCNCC1",
    "GI50": "> 100 µM (inactive)"
  },
  {
    "compound": "COc1cc2c(cc1OC)CCN=C2",
    "GI50": "> 100 µM (inactive)"
  },
  {
    "compound": "CC(C)(C)c1cc(C2COC(=O)COCC(=O)OCCOCCOCCO2)cc(C(C)(C)C)c1O (centres undefined)",
    "GI50": "28.4 µM (inactive)"
  },
  {
    "compound": "CCCCn1/c(=N/C(=S)N(C)C)ss/c1=N\\C(=S)N(C)C",
    "GI50": "> 100 µM (inactive)"
  },
  {
    "compound": "O=C(O)Cc1ccc2c(c1)/C(=C1/Nc3ccccc3C1=O)C(=O)N2",
    "GI50": "> 100 µM (inactive)"
  },
  {
    "compound": "COC(=O)C1=CSC2(S1)C(C(=O)OC)=CSc1c2ssc1=O (centres undefined)",
    "GI50": "8.15 µM (inactive)"
  }
]

For every item in the list below, what is its measured GI50?
1. CN(Cc1cc(Br)cc(Br)c1O)Cc1c(O)ccc2ccccc12
2. CCCCCCCCCCCCCCCCCC(=O)Nc1ccn(C2OC(CO)C(O)C2O)c(=O)n1 (centres undefined)
3. CNCC(=O)Nc1ccc2c(c1)C(=O)c1ccc(NC(=O)CNC)cc1C2=O

17.6 µM (inactive)
> 70.5 µM (inactive)
17.5 µM (inactive)

====

# Tested on: MCF7
# procedure_summary: NCI tumour cell line growth inhibition, 48 h
Activity calls are given as the source filed them. Rule as the data show it: active = GI50 up to about 1.1 µM and inactive = higher.
Exercise: state measured GI50 for each of the compounds provided.

[
  {
    "compound": "Cc1nc2ccc(NC(=S)Nc3ccccc3)cc2c(=O)n1-c1ccccc1",
    "GI50": "> 100 µM (inactive)"
  },
  {
    "compound": "O=c1oc2ccccc2c2c1Sc1ccccc1N2",
    "GI50": "71.3 µM (inactive)"
  },
  {
    "compound": "NC(=O)c1nnc2c(F)cccc2c1N",
    "GI50": "40 µM (inactive)"
  },
  {
    "compound": "O=C(O)C12C3CCC(CC3)C1(C(=O)O)C1CCC2C1 (stereo unspecified)",
    "GI50": "> 100 µM (inactive)"
  },
  {
    "compound": "CCOC(=O)C(CS)NC(=O)CCCCCCCC(=O)NC(CS)C(=O)OCC (stereo unspecified)",
    "GI50": "> 100 µM (inactive)"
  }
]

Now consider the entry below.
Lookup: GI50 / MCF7 / Nc1ccn([C@H]2CO[C@@H](CO)[C@@H]2O)c(=O)n1
> 100 µM (inactive)

====

# Tested on: 786-0
# procedure_summary: NCI tumour cell line growth inhibition, 48 h
Calls of active or inactive are those of the source. Rule as the data show it: active = GI50 up to about 1.1 µM and inactive = higher.
result_type: GI50

Here are 5 compounds together with their reported answers.
[
  {
    "compound": "COc1ccc(/C=c2/sc3n(c2=O)NC2(CCC(C)CC2)NN=3)cc1 (stereo not drawn)",
    "endpoint_value": "> 100 µM (inactive)"
  },
  {
    "compound": "[O-][S+]1CSSC1",
    "endpoint_value": "20.7 µM (inactive)"
  },
  {
    "compound": "CCOC(=O)N/N=C(/OCC)c1ccccc1",
    "endpoint_value": "> 100 µM (inactive)"
  },
  {
    "compound": "Nc1ccc(OCCCc2c(-c3ccccc3)[nH]c(N)nc2=O)cc1",
    "endpoint_value": "45.2 µM (inactive)"
  },
  {
    "compound": "O=C(c1cccs1)N(C(=S)OCCOc1ccccc1)c1ccccc1",
    "endpoint_value": "25.2 µM (inactive)"
  }
]

For every record below, what is its GI50?
1. CC1=NN(C2=NS(=O)(=O)c3ccccc3N2C)C(=O)C1
2. C[C@]12CC[C@H]3[C@@H](CCC4=CC(=O)CC[C@@]43C)[C@@H]1CC[C@@H]2C(=O)Nc1ccc([N+](=O)[O-])c(C(F)(F)F)c1
3. C=C1C(=O)O[C@H]2C[C@@H]1C(=O)CC(C)CCCC(C)=CCC[C@@]2(C)O (stereo partly drawn)
4. CC1(c2ccccc2Cl)C(C#N)C(=O)NC(=O)C1C#N (stereo not drawn)
5. C=CC[C@H]1[C@H](O[Si](C)(C)C(C)(C)C)C=CC(=O)[C@@H]1CC(=O)OCC
6. CCOC(=O)N1C/C(=C\c2ccccc2)C(=O)/C(=C/c2ccccc2)C1

["> 100 µM (inactive)", "16.6 µM (inactive)", "> 25 µM (inactive)", "45.6 µM (inactive)", "14.5 µM (inactive)", "2.9 µM (inactive)"]

# map each compound to its GI50
1. Nc1nc(Cl)c(N)c(NCC2(CO)CC(OCc3ccccc3)C2)n1 (stereo not drawn)
2. C=CC1=C(C)c2cc3[nH]c(cc4nc(cc5[nH]c(cc1n2)c(C)c5CCC(=O)N(CC)CC)C(CCC(=O)N(CC)CC)=C4C)c(C)c3C=C

["> 100 µM (inactive)", "> 100 µM (inactive)"]
